- target-entity: Amine oxidase [flavin-containing] A (Homo sapiens)
- Sequence (P21397 whole entry): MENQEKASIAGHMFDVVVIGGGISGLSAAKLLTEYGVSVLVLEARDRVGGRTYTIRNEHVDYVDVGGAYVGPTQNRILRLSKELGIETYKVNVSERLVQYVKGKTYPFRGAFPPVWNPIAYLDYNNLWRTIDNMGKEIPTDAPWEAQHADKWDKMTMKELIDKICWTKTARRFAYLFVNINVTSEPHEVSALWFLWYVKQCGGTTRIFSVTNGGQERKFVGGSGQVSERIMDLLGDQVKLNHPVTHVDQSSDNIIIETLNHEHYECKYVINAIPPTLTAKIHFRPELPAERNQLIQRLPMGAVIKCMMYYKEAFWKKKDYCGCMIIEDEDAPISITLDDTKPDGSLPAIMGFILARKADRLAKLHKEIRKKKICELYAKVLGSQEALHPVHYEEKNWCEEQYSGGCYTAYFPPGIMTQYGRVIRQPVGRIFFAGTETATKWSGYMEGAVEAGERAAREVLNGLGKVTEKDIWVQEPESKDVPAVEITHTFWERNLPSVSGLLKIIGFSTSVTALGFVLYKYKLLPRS
- assay-procedure: Inhibition of human recombinant MAO-A expressed in baculovirus-infected BTI-TN-5B1-4 cell microsomes assessed as decrease in H2O2 production using p-tyramine as substrate preincubated for 15 mins by Amplex Red reagent based fluorimetric method
Parameter pIC50: see the listing below.
Scale note: pIC50 = -log10(concentration in M).

In the examples that follow, each entry is paired with its recorded pIC50.
C[C@@H]1CCC(=NNc2nc(-c3ccc(F)cc3F)cs2)C1 :: 4.81
CC1CCC/C1=N\Nc1nc(-c2ccc([N+](=O)[O-])cc2)cs1 (mixture of isomers) :: 4.72
CC1CC/C(=N\Nc2nc(-c3ccc(C#N)cc3)cs2)C1 (mixture of isomers) :: 4.96
C[C@@H]1CC/C(=N\Nc2nc(-c3ccc(F)cc3F)cs2)C1 :: 4.88
C[C@@H]1CC/C(=N/Nc2nc(-c3ccc(F)cc3F)cs2)C1 :: 4.86

Let us examine a further case.
Per the records, this compound ( CC1CC/C(=N\Nc2nc(-c3ccc(F)cc3F)cs2)C1 (mixture of isomers) ) has pIC50 equal to 4.77

----------
- System: BTI-TN-5B1-4
- assay-procedure: Selectivity index, ratio of IC50 for human recombinant MAO-A expressed in baculovirus-infected BTI-TN-5B1-4 cell microsomes to IC50 for human recombinant MAO-B expressed in baculovirus-infected BTI-TN-5B1-4 cell microsomes
Parameter Ratio IC50: see the listing below.

CC1CC/C(=N\Nc2nc(-c3ccc([N+](=O)[O-])cc3)cs2)C1 (mixture of isomers) :: > 266
CC1CC/C(=N\Nc2nc(-c3ccc(C#N)cc3)cs2)C1 (mixture of isomers) :: 49

Per the records, this compound ( CC1CCC/C1=N\Nc1nc(-c2ccc([N+](=O)[O-])cc2)cs1 (mixture of isomers) ) has Ratio IC50 equal to 2310

Per the records, this compound ( C[C@@H]1CC/C(=N/Nc2nc(-c3ccc(F)cc3F)cs2)C1 ) has Ratio IC50 equal to 4740

Per the records, this compound ( C[C@@H]1CCC(=NNc2nc(-c3ccc(F)cc3F)cs2)C1 ) has Ratio IC50 equal to 2920

Per the records, this compound ( CC1CC/C(=N\Nc2nc(-c3ccc(F)cc3F)cs2)C1 (mixture of isomers) ) has Ratio IC50 equal to 1810

Per the records, this compound ( C[C@@H]1CC/C(=N\Nc2nc(-c3ccc(F)cc3F)cs2)C1 ) has Ratio IC50 equal to 2580

----------
- target-entity: Amine oxidase [flavin-containing] B (Homo sapiens, UniProt P27338)
- Sequence (P27338 whole entry): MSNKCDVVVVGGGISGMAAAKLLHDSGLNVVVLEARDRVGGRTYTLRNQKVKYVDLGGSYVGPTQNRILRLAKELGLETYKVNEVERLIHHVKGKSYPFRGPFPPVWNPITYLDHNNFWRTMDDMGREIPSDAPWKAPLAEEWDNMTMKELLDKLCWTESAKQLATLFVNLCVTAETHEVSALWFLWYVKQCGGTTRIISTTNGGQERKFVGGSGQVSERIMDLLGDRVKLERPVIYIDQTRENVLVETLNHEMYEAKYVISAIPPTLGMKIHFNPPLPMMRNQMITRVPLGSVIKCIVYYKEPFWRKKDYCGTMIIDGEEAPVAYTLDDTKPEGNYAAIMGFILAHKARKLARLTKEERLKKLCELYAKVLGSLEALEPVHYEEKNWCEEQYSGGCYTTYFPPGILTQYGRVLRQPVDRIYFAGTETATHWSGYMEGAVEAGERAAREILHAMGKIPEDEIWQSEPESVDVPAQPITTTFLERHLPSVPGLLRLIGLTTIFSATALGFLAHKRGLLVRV
- assay-procedure: biochemical
- Description: Inhibition of human recombinant MAO-B expressed in baculovirus-infected BTI-TN-5B1-4 cell microsomes assessed as decrease in H2O2 production using p-tyramine as substrate preincubated for 15 mins by Amplex Red reagent based fluorimetric method
property-measured: IC50 (nM)
Answer format: numeric, nM implied, no suffix.

CC1CC/C(=N\Nc2nc(-c3ccc(F)cc3F)cs2)C1 (mixture of isomers) :: 9.34
C[C@@H]1CC/C(=N\Nc2nc(-c3ccc(F)cc3F)cs2)C1 :: 5.06
C[C@@H]1CCC(=NNc2nc(-c3ccc(F)cc3F)cs2)C1 :: 5.32

Per the records, this compound ( C[C@@H]1CC/C(=N/Nc2nc(-c3ccc(F)cc3F)cs2)C1 ) has IC50 equal to 2.91

Per the records, this compound ( CC1CCC/C1=N\Nc1nc(-c2ccc([N+](=O)[O-])cc2)cs1 (mixture of isomers) ) has IC50 equal to 8.31

Per the records, this compound ( CC1CC/C(=N\Nc2nc(-c3ccc(C#N)cc3)cs2)C1 (mixture of isomers) ) has IC50 equal to 227

Per the records, this compound ( CC1CC/C(=N\Nc2nc(-c3ccc([N+](=O)[O-])cc3)cs2)C1 (mixture of isomers) ) has IC50 equal to 376
